src = patent US10759793B2

Target: JAK3 (Homo sapiens (Human), UniProt P52333)
Sequence (P52333 795-1124): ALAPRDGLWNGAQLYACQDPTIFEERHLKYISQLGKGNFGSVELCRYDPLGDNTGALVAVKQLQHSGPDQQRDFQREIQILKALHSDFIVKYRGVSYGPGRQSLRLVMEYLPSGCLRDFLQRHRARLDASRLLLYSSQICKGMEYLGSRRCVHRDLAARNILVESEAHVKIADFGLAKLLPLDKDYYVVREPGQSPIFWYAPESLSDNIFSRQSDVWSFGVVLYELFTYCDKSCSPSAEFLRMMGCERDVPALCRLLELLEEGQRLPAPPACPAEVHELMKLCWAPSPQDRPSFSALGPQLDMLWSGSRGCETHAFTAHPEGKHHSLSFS
Test: In vitro JAK kinase assay (TR-FRET), JAK3
Conditions: catalytic domain aa 795-1124, GST-fusion; ATP 0.6 μM; peptide 140 nM; 30 minutes at room temperature
Method: Compounds were screened for their ability to inhibit JAK1, JAK2 and JAK3 using the assays as indicated below. […] The enzymatic activity was assayed using as substrate a biotinylated peptide, poly (GT)-Biotin (CisBio). […] The degree of phosphorylation was detected by TR-FRET (time-resolved fluorescence energy transfer). […] Incubate for 3 h and read on Victor 2V spectrofluorometer (Perkin Elmer) set to read fluorescence resonance energy transfer.
# IC50 values compiled below
Remember to follow the number with its unit.

Illustrative cases are given below, each with its answer.
N#CCC(=O)N1CCC[C@@H](Nc2nc(-c3cnn4ccccc34)nc(-c3ccc(N)nc3)c2F)C1 [Example 18]    2 nM
COc1cc(N[C@@H]2CCCN(C(=O)CO)C2)nc(-c2cnn3ccccc23)n1 [Example 94]    7 nM
CCOC(=O)C1CCN(c2nc(-c3cnn4ccccc34)nc(N[C@@H]3CCCN(C(=O)CC#N)C3)c2F)CC1 [Example 30]    2 nM

Next item in the queue.
Enter IC50 (test system JAK3 (Homo sapiens (Human), UniProt P52333)) for CCCCOc1nc(-c2cnn3ccccc23)nc(N[C@@H]2CCCN(C(=O)CC#N)C2)c1F [Example 15]
2 nM

###

Target: JAK2 (Homo sapiens (Human))
Sequence (O60674 826-1132): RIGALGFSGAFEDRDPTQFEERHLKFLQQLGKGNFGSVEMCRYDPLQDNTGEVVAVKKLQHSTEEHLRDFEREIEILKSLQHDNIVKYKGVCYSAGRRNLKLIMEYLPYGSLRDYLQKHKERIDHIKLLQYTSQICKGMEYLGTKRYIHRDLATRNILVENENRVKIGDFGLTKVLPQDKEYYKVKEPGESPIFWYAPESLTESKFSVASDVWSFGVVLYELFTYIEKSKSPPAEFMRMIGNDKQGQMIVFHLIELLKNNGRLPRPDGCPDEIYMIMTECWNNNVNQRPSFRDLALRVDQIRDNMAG
Test: In vitro JAK kinase assay (TR-FRET), JAK2
Assay type: biochemical
Conditions: catalytic domain aa 826-1132, GST-fusion; ATP 0.2 μM; peptide 20 nM; 30 minutes at room temperature
Reported IC50 values follow for various compounds
Please reply with the bare figure in nM and do not write the unit itself.

Examples from the recorded data:
COCCOc1nc(-c2cnn3ccccc23)nc(N[C@@H]2CCCN(C(=O)CO)C2)c1C    0.7
COCCOc1nc(-c2cnn3ccccc23)nc(N[C@@H]2CCCN(C(=O)CO)C2)c1F    0.8
O=C(CO)N1CCC[C@@H](Nc2nc(-c3cnn4ccccc34)nc(O)c2F)C1    0.7
CN1CCN(c2nc(-c3cnn4ccccc34)nc(O[C@@H]3CCCN(C(=O)CO)C3)c2F)CC1    5
O=C(CO)N1CCC[C@@H](Nc2nc(-c3cnn4ccccc34)nc(N3CCC(CO)CC3)c2F)C1    1

Provide JAK2 (Homo sapiens (Human)) IC50 reading for N#CCC(=O)N1CCC[C@@H](Nc2cc(OCCO)nc(-c3cnn4ccccc34)n2)C1 .
1

// fetch IC50; item: COc1cc(N[C@@H]2CCCN(C(=O)CO)C2)nc(-c2cnn3ccccc23)n1 ; system: JAK2 (Homo sapiens (Human))
1

Fetch value of IC50 on JAK2 (Homo sapiens (Human)) for CN(C)C1CCN(c2nc(-c3cnn4ccccc34)nc(N[C@H]3CC[C@H](CC#N)CC3)c2F)CC1 .
1

Please indicate recorded IC50 of COc1ccc(-c2nc(-c3cnn4ccccc34)nc(N[C@@H]3CCCN(C(=O)CC#N)C3)c2F)cn1 measured with JAK2 (Homo sapiens (Human)).
0.3

Provide JAK2 (Homo sapiens (Human)) IC50 reading for COCCOc1cc(N[C@@H]2CCCN(C(=O)CC#N)C2)nc(-c2cnn3ccccc23)n1 .
1

Retrieve IC50 on JAK2 (Homo sapiens (Human)); query Cc1ccc(-c2nc(-c3cnn4ccccc34)nc(N[C@@H]3CCCN(C(=O)CO)C3)c2F)cn1
0.5

###

Collected pIC50 values appear next to each entry.
Target: UniProtKB P52333
Test: In vitro JAK kinase assay (TR-FRET), JAK3
Conditions: catalytic domain aa 795-1124, GST-fusion; ATP 0.6 μM; peptide 140 nM; 30 minutes at room temperature
Entry type: numeric. Quantity: pIC50, the -log10 of concentration in molar units.

// worked examples, pIC50 included
Cc1ccc(-c2nc(-c3cnn4ccccc34)nc(N[C@@H]3CCCN(C(=O)CO)C3)c2F)cn1    8.70
C[C@H](Nc1nc(-c2cnn3ccccc23)nc(N2CCC(N)CC2)c1F)c1ccc(F)cn1    8.52
O=C(CO)N1CCC[C@@H](Nc2nc(-c3cnn4ccccc34)nc(OCC(F)F)c2F)C1    8.05

Provide only the value of recorded pIC50 for COC[C@@H](C)Oc1nc(-c2cnn3ccccc23)nc(N[C@@H]2CCCN(c3cnc(C#N)cn3)C2)c1F
8.30

Supply reported pIC50 belonging to this molecule: Cc1cc(-c2nc(-c3cnn4ccccc34)nc(N[C@@H]3CCCN(C(=O)CC#N)C3)c2F)ccn1
9.00

Please indicate pIC50 recorded for COc1ccc(-c2nc(-c3cnn4ccccc34)nc(N[C@@H]3CCCN(C(=O)CC#N)C3)c2F)cn1
8.70

Quickly give me recorded pIC50 for CC(C)Oc1nc(-c2cnn3ccccc23)nc(N[C@@H]2CCCN(C(=O)CO)C2)c1F
8.52

State its pIC50: N#Cc1nc(-c2cnn3ccccc23)nc(N[C@@H]2CCCN(C(=O)CO)C2)c1F
7.92

###

Target: JAK1 (Homo sapiens (Human), UniProt P23458)
Sequence (P23458 850-1154): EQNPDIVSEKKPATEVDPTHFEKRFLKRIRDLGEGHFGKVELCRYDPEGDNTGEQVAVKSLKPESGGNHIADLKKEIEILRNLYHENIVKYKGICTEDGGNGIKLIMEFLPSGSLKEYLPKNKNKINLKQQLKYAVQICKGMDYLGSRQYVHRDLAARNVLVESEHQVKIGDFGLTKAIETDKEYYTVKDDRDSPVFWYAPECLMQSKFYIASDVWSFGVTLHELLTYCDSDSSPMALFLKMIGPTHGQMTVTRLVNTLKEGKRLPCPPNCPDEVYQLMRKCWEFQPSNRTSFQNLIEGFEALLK
Assay: In vitro JAK kinase assay (TR-FRET), JAK1
Format: biochemical
Conditions: catalytic domain aa 850-1154, GST-fusion; ATP 3 μM; peptide 60 nM; 30 minutes at room temperature
Method: Compounds were screened for their ability to inhibit JAK1, JAK2 and JAK3 using the assays as indicated below. […] The enzymatic activity was assayed using as substrate a biotinylated peptide, poly (GT)-Biotin (CisBio). […] The degree of phosphorylation was detected by TR-FRET (time-resolved fluorescence energy transfer). […] Incubate for 3 h and read on Victor 2V spectrofluorometer (Perkin Elmer) set to read fluorescence resonance energy transfer.
Each record here notes measured IC50.
All answers are understood in nM, so give the number only.

Below: 2 molecules and their reported IC50.
N#Cc1cnc(N2CCC[C@@H](Nc3nc(-c4cnn5ccccc45)nc(OCCO)c3F)C2)cn1    7
CN(C)CCOc1nc(-c2cnn3ccccc23)nc(N[C@H]2CC[C@H](CC#N)CC2)c1F    85

Give the value of IC50 reported for the following: COc1nc(-c2cnn3ccccc23)nc(N[C@@H]2CCCN(c3cnc(C#N)cn3)C2)c1F
43

Identify IC50 associated with the molecule C[C@H](Nc1nc(-c2cnn3ccccc23)nc(N2CCC(N)CC2)c1F)c1ccc(F)cn1
40

Assign IC50 to the following record: N#CCC(=O)N1CCC[C@@H](Nc2nc(-c3cnn4ccccc34)nc(-c3ccnc(CO)c3)c2F)C1
2

Fill in reported IC50 for this entry: N#CCC(=O)N1CCC[C@@H](Nc2cc(OCCO)nc(-c3cnn4ccccc34)n2)C1
1

Entry O=C(CO)N1CCC[C@@H](Nc2nc(-c3cnn4ccccc34)nc(-c3ccncc3)c2F)C1 needs its IC50 filled in; supply it.
2

Write down IC50 measured for item N#CC[C@H]1CC[C@H](Nc2nc(-c3cnn4ccccc34)nc(NCCO)c2F)CC1
16

###

Molecular target: JAK2 (Homo sapiens (Human))
Test: In vitro JAK kinase assay (TR-FRET), JAK2
Format: biochemical
Conditions: catalytic domain aa 826-1132, GST-fusion; ATP 0.2 μM; peptide 20 nM; 30 minutes at room temperature
IC50 values, listed per item

O=C(COc1nc(-c2cnn3ccccc23)nc(N[C@@H]2CCCN(C(=O)CO)C2)c1F)OCc1ccccc1    74 nM
C[C@H](O)COc1nc(-c2cnn3ccccc23)nc(O[C@@H]2CCCN(C(=O)CO)C2)c1F    1 nM
CN(C)c1ccc(-c2nc(-c3cnn4ccccc34)nc(N[C@@H]3CCCN(C(=O)CO)C3)c2F)cn1    1 nM

Moving on to the next compound.
For JAK2 (Homo sapiens (Human)), give the measured IC50 of the entry COCCOc1cc(N[C@@H]2CCCN(C(=O)CO)C2)nc(-c2cnn3ccccc23)n1
1 nM

###

Biological target: JAK1 (Homo sapiens (Human), UniProt P23458)
Assay: In vitro JAK kinase assay (TR-FRET), JAK1
Conditions: catalytic domain aa 850-1154, GST-fusion; ATP 3 μM; peptide 60 nM; 30 minutes at room temperature
pIC50: −log10 of the molar value.
Assign Satisfied whenever pIC50 does not fall below 8; assign Not satisfied whenever it does.

Please review the entries below; each comes with its answer.
CCOC(=O)C1CCN(c2nc(-c3cnn4ccccc34)nc(N[C@@H]3CCCN(C(=O)CC#N)C3)c2F)CC1    Satisfied
COc1nc(-c2cnn3ccccc23)nc(O[C@@H]2CCCN(C(=O)CC#N)C2)c1F    Not satisfied
CN1CCN(c2nc(-c3cnn4ccccc34)nc(O[C@@H]3CCCN(C(=O)CC#N)C3)c2F)CC1    Not satisfied
O=C(CO)N1CCC[C@@H](Oc2nc(-c3cnn4ccccc34)nc(N3CCC(O)CC3)c2F)C1    Not satisfied
COC[C@@H](C)Oc1nc(-c2cnn3ccccc23)nc(N[C@@H]2CCCN(C(=O)CO)C2)c1F    Not satisfied

Record O=C(O)c1ccc(-c2nc(-c3cnn4ccccc34)nc(N[C@@H]3CCCN(C(=O)CO)C3)c2F)cn1 ; criterion: pIC50 no lower than 8. Met?
Satisfied

Threshold query (pIC50 >= 8) on O=C(CO)N1CCC[C@@H](Nc2nc(-c3cnn4ccccc34)nc(-c3cn[nH]c3)c2F)C1
Satisfied

Determine whether this molecule has pIC50 no lower than 8: N#CC[C@H]1CC[C@H](Nc2nc(-c3cnn4ccccc34)nc(N3CCNCC3)c2F)CC1
Not satisfied

Form field: pIC50 at least 8? Entry: N#CCC(=O)N1CCC[C@@H](Oc2nc(-c3cnn4ccccc34)nc(NCCO)c2F)C1
Not satisfied

Could you tell me if the measured pIC50 of C[C@@H](CO)Oc1nc(-c2cnn3ccccc23)nc(N[C@@H]2CCCN(C(=O)CO)C2)c1F reaches 8 or more?
Not satisfied
